From: patent US10570131B2

EXPERIMENTAL TARGET: CTX-M-15 (Escherichia coli)
Sequence (Q9EXV5 entry or part of it): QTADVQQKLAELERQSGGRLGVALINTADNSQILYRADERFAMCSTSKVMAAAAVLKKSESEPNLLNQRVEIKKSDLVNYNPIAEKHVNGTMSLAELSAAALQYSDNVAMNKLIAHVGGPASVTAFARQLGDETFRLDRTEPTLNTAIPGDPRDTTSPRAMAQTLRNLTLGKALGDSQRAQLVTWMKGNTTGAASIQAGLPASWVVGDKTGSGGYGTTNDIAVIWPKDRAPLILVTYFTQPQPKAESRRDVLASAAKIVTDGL
PROTOCOL NOTES: β-lactamase inhibitory activity, IC50 (nitrocefin hydrolysis)
REPORTED PROPERTY: pIC50
One number for each entry, as −log10 of the molar value.

Some solved cases for reference:
- MOLECULE: "NC[C@@H]1CC(=NOCC(N)=O)[C@@H]2CN1C(=O)N2OS(=O)(=O)O (mixture of isomers)"
  REPORTED PROPERTY: "pIC50"
  OBS VALUE: 6.89
- MOLECULE: "NC[C@@H]1CC(=O)[C@@H]2CN1C(=O)N2OS(=O)(=O)O"
  REPORTED PROPERTY: "pIC50"
  OBS VALUE: 6.29
- MOLECULE: "CNC(=O)CON=C1C[C@@H](C(N)=O)N2C[C@@H]1N(OS(=O)(=O)[O-])C2=O.[Na+] (mixture of isomers) [Example 2, sulfate]"
  REPORTED PROPERTY: "pIC50"
  OBS VALUE: 9.12
- MOLECULE: "NC(=O)CON=C1C[C@@H](C(N)=O)N2C[C@@H]1N(OS(=O)(=O)[O-])C2=O.[Na+] (mixture of isomers) [Example 3, sulfate]"
  REPORTED PROPERTY: "pIC50"
  OBS VALUE: 8.70

Data point: CNC(=O)CON=C1C[C@@H](C(=O)OC)N2C[C@@H]1N(OS(=O)(=O)[O-])C2=O.[Na+] (mixture of isomers) [Example 1, sulfate] ; pIC50 = 8.27

----------
I'd appreciate it if you could supply pIC50 values for the items below.
EXPERIMENTAL TARGET: UniProt P0AD64
Sequence (P0AD64 22-286): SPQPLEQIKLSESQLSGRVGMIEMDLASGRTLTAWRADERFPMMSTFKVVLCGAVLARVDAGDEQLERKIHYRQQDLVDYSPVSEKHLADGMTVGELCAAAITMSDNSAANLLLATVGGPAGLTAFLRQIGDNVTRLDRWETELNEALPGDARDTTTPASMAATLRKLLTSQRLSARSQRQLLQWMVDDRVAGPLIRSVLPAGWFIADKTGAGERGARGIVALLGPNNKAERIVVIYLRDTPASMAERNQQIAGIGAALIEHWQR
PROTOCOL NOTES: β-lactamase inhibitory activity, IC50 (nitrocefin hydrolysis)
Answers are plain numbers, as −log10 of the molar value.

Answered examples (4):
- COMPOUND: "NC(=O)CON=C1C[C@@H](C(N)=O)N2C[C@@H]1N(OS(=O)(=O)[O-])C2=O.[Na+] (mixture of isomers) [Example 3, sulfate]"
  pIC50: 8.34
- COMPOUND: "NC[C@@H]1CC(=NOCC(N)=O)[C@@H]2CN1C(=O)N2OS(=O)(=O)O (mixture of isomers) [Example 5]"
  pIC50: 7.19
- COMPOUND: "NC[C@@H]1CC(=O)[C@@H]2CN1C(=O)N2OS(=O)(=O)O [Example 6]"
  pIC50: 6.47
- COMPOUND: "CNC(=O)CON=C1C[C@@H](C(N)=O)N2C[C@@H]1N(OS(=O)(=O)[O-])C2=O.[Na+] (mixture of isomers) [Example 2, sulfate]"
  pIC50: 9.13

For record CNC(=O)CON=C1C[C@@H](C(=O)OC)N2C[C@@H]1N(OS(=O)(=O)[O-])C2=O.[Na+] (mixture of isomers) [Example 1, sulfate] the listed pIC50 is 8.89

----------
EXPERIMENTAL TARGET: AmpC (PAE) (Pseudomonas aeruginosa)
Sequence (P24735 27-397): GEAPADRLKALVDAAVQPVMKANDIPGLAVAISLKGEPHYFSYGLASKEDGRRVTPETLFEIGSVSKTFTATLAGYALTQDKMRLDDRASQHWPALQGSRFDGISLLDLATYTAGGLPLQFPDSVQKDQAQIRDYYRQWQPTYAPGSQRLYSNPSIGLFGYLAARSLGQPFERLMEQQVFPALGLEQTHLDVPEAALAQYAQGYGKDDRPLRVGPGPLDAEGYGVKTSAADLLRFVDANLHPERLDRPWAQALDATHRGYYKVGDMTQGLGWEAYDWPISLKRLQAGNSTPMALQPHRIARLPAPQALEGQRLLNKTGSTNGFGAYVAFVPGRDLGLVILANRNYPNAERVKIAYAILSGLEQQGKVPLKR
PROTOCOL NOTES: biochemical
Each record is given satisfied if its reported IC50 is strictly below 10000 nM. Records at or above 10000 nM are given not satisfied.

// below: answered compounds
- COMPOUND: "NC[C@@H]1CC(=O)[C@@H]2CN1C(=O)N2OS(=O)(=O)O"
  CLASS: "not satisfied"
- COMPOUND: "CNC(=O)CON=C1C[C@@H](C(N)=O)N2C[C@@H]1N(OS(=O)(=O)[O-])C2=O.[Na+] (mixture of isomers) [Example 2, sulfate]"
  CLASS: "satisfied"
- COMPOUND: "NC[C@@H]1CC(=NOCC(N)=O)[C@@H]2CN1C(=O)N2OS(=O)(=O)O (mixture of isomers)"
  CLASS: "not satisfied"
- COMPOUND: "CNC(=O)CON=C1C[C@@H](C(=O)OC)N2C[C@@H]1N(OS(=O)(=O)[O-])C2=O.[Na+] (mixture of isomers) [Example 1, sulfate]"
  CLASS: "satisfied"

hey, is IC50 for NC(=O)CON=C1C[C@@H](C(N)=O)N2C[C@@H]1N(OS(=O)(=O)[O-])C2=O.[Na+] (mixture of isomers) [Example 3, sulfate] lower than 10000 nM or not?
satisfied
